Molecular target: T1, recombinant human CSF-1R (form not stated) (human, UniProt P07333 20-512, limits assumed)
T1 construct: for the ELISA no species is stated; also called recombinant CSF-1R; recombinant CSF-1R protein
T1 sequence (P07333 20-512 limits assumed): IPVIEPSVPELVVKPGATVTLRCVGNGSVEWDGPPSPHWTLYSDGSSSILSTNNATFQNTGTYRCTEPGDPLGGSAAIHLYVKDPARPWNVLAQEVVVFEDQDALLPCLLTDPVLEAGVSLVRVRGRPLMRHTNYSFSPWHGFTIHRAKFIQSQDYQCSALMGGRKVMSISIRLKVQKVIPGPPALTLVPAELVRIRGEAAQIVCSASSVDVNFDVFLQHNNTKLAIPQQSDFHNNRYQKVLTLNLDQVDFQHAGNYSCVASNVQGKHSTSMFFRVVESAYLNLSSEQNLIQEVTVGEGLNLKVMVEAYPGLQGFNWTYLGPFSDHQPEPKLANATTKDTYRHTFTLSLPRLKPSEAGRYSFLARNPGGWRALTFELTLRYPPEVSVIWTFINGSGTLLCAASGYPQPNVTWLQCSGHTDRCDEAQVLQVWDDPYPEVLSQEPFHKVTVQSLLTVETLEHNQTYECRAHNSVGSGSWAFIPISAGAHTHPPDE
Assay: BIAcore, experiment 3 of 3
Experimental: The assay format was capture of the anti-CSF-1R antibodies by immobilised anti-human IgG,F(ab′)₂, then a titration of hCSF-1R/Fc over the captured surface. BIA (Biomolecular Interaction Analysis) was performed using a BIAcore 3000 (GE Healthcare Bio-Sciences AB). All experiments were performed at 25° C. […]
ASSAY_READOUT: kon (M⁻¹ s⁻¹)
# number only, unit M⁻¹ s⁻¹ dropped from output

Worked examples, 2 binders total:
- BINDER: "969gH2gL8 (antibody, human IgG4 S228P, kappa, name in Kabat numbering, V domains shown, Humanised IgG4 (S241P)/kappa, no donor residues; position is Kabat; also called Ab969.g4) VH: EVTLKESGPALVKPTQTLTLTCTFSGFSLTTYGMGVGWIRQPPGKALEWLANIWWDDDKYYNPSLKNRLTISKDTSKNQVVLTMTNMDPVDTATYYCARIGPIKYPTAPYRYFDFWGQGTMVTVSS VL: DIQMTQSPSSLSASVGDRVTITCLASEDIYDNLAWYQQKPGKAPKLLIYYASSLQDGVPSRFSGSGSGTDFTLTISSLQPEDFATYYCLQDSEYPWTFGGGTKVEIKR"
  ASSAY_READOUT: "kon"
  MEAS_VALUE: "1.97e+06"
- BINDER: "chimeric antibody 969 (rat variable regions, human gamma-4 heavy chain constant region and human kappa chain constant region) (antibody, human IgG4, V domains shown, Alexa-488 label in the cell-based affinity assay; not carried by the letters., Full-length human IgG4 (S241P)/kappa chimeric; also called Ab969) VH: QVTLKESGPGILQPSQTLSLTCTFSGFSLTTYGMGVGWIRQPSGKGLEWLANIWWDDDKYYNPSLKNRLTISKDTSNNQAFLKLTNVHTSDSATYYCARIGPIKYPTAPYRYFDFWGPGTMVTVSS VL: DIQMTQSPASLSASLGETVSIECLASEDIYDNLAWYQKKPGKSPHLLIYYASSLQDGVPSRFSGSGSGTQYSLKINSLESEDAATYFCLQDSEYPWTFGGGTKLELKR"
  ASSAY_READOUT: "kon"
  MEAS_VALUE: "2.68e+06"

// field: kon; key: 969gH2gL4 (antibody, human IgG4 S228P, kappa, name in Kabat numbering, V domains shown, Humanised IgG4 (S241P)/kappa; positions are Kabat; also called Ab969.g7) VH: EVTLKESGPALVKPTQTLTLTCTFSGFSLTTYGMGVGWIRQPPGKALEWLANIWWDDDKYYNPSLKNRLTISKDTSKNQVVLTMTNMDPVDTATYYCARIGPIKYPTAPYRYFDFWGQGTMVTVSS VL: DIQMTQSPSSLSASVGDRVTITCLASEDIYDNLAWYQKKPGKAPKLLIYYASSLQDGVPSRFSGSGSGTDYTLTISSLQPEDFATYYCLQDSEYPWTFGGGTKVEIKR ; value = 2.52e+06

Sample 969gH2gL1 (antibody, human IgG4 S228P, kappa, name in Kabat numbering, V domains shown, Humanised IgG4 (S241P)/kappa; positions are Kabat; also called Ab969.g6) VH: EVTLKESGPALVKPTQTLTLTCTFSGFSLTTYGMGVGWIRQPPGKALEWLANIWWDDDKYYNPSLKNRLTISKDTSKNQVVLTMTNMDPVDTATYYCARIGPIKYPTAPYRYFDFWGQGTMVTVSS VL: DIQMTQSPSSLSASVGDRVTITCLASEDIYDNLAWYQKKPGKAPKLLIYYASSLQDGVPSRFSGSGSGTDYTLTISSLQPEDFATYFCLQDSEYPWTFGGGTKVEIKR ; kon observed: 2.54e+06

969gH1gL1 (antibody, human IgG4 S228P, kappa, name in Kabat numbering, V domains shown, Humanised IgG4 (S241P)/kappa; positions are Kabat; also called Ab969.g1) VH: EVTLKESGPALVKPTQTLTLTCTFSGFSLTTYGMGVGWIRQPPGKALEWLANIWWDDDKYYNPSLKNRLTISKDTSKNQAVLTMTNMDPVDTATYYCARIGPIKYPTAPYRYFDFWGQGTMVTVSS VL: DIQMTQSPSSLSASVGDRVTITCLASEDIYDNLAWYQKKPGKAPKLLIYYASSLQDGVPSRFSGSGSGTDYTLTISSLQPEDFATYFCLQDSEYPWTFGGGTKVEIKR has a reported kon of 2.51e+06
